Data credit: the kinase profiling compilation of Christmann-Franck et al. (2016)

Target: MAPK14 (human) (UniProt Q16539)
Sequence (Q16539 whole entry, looked up): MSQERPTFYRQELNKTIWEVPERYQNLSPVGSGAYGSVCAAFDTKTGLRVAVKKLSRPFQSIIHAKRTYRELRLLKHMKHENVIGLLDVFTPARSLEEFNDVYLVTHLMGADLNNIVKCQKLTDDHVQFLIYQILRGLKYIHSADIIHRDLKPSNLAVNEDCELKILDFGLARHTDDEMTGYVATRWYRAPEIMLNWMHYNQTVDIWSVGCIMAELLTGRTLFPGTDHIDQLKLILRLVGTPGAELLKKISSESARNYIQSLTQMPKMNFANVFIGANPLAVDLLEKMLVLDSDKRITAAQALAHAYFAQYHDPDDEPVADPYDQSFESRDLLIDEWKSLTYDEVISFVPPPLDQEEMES
Experiment: Free Choice Kinase Assay Projects, Flashplate
Settings: compound 10.0 µM; ATP 1 µM
Readout type: residual activity (%)

INSERT INTO results (given_smiles, reading) VALUES
  ('Fc1ccc(-c2[nH]c(CCc3ccccc3)nc2-c2ccncc2)cc1', 0),
  ('CSc1ccccc1CSc1nc(-c2ccncc2)c(-c2ccc(F)cc2)[nH]1', 10),
  ('On1c(/C=C/c2ccccc2)nc(-c2ccncc2)c1-c1ccc(F)cc1', 3);

A = Fc1ccc(-c2[nH]c(SCc3cccc4ccccc34)nc2-c2ccncc2)cc1
B = Fc1ccc(-c2[nH]c(SCc3ccccc3)nc2-c2ccnc(Cl)c2)cc1
Ask: # query: argmin of residual activity over A and B Field: selected label. Fill in the label of the entry you choose.
Result: A
(A: 3%, B: 9%)
